ASSAY TARGET: IGF-1 receptor on the cells of the PathHunter IGF1R Functional Assay (DiscoverX) (UniProt P08069 31-1367)
Sequence (P08069 31-1367): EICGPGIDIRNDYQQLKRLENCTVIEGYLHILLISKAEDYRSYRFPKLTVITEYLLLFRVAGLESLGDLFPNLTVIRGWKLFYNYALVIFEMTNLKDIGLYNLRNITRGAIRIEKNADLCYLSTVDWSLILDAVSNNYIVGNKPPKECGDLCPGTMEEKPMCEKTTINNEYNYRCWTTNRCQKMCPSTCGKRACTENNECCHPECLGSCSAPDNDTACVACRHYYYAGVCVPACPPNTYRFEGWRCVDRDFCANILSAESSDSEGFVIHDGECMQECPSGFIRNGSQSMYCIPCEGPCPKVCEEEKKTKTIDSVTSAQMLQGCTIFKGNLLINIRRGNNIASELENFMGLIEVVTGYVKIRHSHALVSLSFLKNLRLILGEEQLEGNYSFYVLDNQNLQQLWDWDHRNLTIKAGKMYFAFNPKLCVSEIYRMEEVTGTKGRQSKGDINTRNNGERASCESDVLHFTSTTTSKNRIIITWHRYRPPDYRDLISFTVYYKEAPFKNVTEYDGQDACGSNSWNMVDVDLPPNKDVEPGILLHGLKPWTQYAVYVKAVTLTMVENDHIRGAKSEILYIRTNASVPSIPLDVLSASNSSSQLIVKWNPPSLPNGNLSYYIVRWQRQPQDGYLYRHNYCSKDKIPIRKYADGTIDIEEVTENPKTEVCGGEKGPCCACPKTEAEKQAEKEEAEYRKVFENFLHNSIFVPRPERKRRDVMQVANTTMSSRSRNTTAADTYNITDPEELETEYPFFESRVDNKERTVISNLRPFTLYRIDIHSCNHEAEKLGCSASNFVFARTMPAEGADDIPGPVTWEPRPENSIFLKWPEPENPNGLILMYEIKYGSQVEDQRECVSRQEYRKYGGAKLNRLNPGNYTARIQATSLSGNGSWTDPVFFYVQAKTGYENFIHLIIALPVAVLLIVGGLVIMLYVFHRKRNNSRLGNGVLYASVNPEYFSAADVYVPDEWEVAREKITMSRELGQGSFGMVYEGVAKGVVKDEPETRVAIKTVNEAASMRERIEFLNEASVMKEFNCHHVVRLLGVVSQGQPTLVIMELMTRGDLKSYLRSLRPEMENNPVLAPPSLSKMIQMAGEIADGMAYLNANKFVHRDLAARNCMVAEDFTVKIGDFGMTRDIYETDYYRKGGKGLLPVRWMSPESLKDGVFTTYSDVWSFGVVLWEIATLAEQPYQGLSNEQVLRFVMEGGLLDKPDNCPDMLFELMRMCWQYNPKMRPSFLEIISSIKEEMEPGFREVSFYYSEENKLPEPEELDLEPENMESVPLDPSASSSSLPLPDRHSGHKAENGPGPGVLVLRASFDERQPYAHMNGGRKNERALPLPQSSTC
PROTOCOL: cell-based or functional assay
ATTRIBUTE MEASURED: Signal activation Emax vs IGF11-16, PathHunter (ratio vs IGF11-16)
Express your answer in ratio vs IGF11-16, writing the number without its unit.

Some solved entries appear below for comparison.
Task: Return the recorded Signal activation Emax vs IGF11-16, PathHunter value; entry: IGF11-16 with alanine substitution of W at position 33 (CDR-H1) (antibody, mouse IgG1, V domains shown) VH: QIQLQQPGAELVKPGASVKLSCKAPGYTFTSYAMHWVKQRPGQGLEWIGETNPSNSVTNYNEKFKSKATLTVDKSSSTAYMQLSSLTSEDSAVYYCTIGRGRGFAYWGQGTLVTVSA VL: DIQMNQSPSSLSASLGDTITITCRASQNINFWLSWCQQKPGNIPKLLIYKASNLHTGVPSRFSGSGSGTDFTLTISSLQPEDIATYYCLQGQSYPYTFGGGTKLEIK
Result: 0

Task: Please look at this binder and report its Signal activation Emax vs IGF11-16, PathHunter: IGF11-16 with alanine substitution of H at position 35 (CDR-H1) (antibody, mouse IgG1, V domains shown) VH: QIQLQQPGAELVKPGASVKLSCKAPGYTFTSYWMAWVKQRPGQGLEWIGETNPSNSVTNYNEKFKSKATLTVDKSSSTAYMQLSSLTSEDSAVYYCTIGRGRGFAYWGQGTLVTVSA VL: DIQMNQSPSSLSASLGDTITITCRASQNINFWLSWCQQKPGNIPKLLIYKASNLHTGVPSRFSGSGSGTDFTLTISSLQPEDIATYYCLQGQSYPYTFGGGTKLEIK
Result: 1

Alright, here's another binder for you.
Task: Look up and state reported Signal activation Emax vs IGF11-16, PathHunter for IGF11-16 with alanine substitution of N at position 52 (CDR-H2) (antibody, mouse IgG1, V domains shown) VH: QIQLQQPGAELVKPGASVKLSCKAPGYTFTSYWMHWVKQRPGQGLEWIGETAPSNSVTNYNEKFKSKATLTVDKSSSTAYMQLSSLTSEDSAVYYCTIGRGRGFAYWGQGTLVTVSA VL: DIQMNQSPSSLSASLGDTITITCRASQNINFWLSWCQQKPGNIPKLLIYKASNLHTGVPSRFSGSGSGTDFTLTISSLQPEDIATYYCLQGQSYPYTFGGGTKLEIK
Result: 0
